Data credit: patent US20190352359A1

molecular target: T1, HLA-A*24; test: UV peptide-exchange ELISA (anti-b2m); yield grade ++ = >20%
T1 construct: Monomers captured on streptavidin plates; also called peptide-receptive MHC molecules; MHC complexes
READOUT KIND: peptide exchange yield

Task item: # lookup: peptide exchange yield of YQRPDLLLF (also called YQRPDLLLF) [GEN-004]
Reply: 20 to 50%

Task item: Need peptide exchange yield, item QFSHVPLNNF (also called QFSHVPLNNF) [ALX1-001]
Reply: 20 to 50%

Task item: Name the reported peptide exchange yield value associated with the binder ASYQQSTSSFF (also called ASYQQSTSSFF) [FAM82A1-001]
Reply: 20 to 50%

Task item: Fill in the blank: the reported peptide exchange yield of SLPGSFIYVF (also called SLPGSFIYVF) [HMCN1-012] is ____.
Reply: 20 to 50%
